# target.system: TNFα-converting enzyme (TACE) (Homo sapiens)
# Construct: purchased R&D Systems
# Sequence (P78536 215-824): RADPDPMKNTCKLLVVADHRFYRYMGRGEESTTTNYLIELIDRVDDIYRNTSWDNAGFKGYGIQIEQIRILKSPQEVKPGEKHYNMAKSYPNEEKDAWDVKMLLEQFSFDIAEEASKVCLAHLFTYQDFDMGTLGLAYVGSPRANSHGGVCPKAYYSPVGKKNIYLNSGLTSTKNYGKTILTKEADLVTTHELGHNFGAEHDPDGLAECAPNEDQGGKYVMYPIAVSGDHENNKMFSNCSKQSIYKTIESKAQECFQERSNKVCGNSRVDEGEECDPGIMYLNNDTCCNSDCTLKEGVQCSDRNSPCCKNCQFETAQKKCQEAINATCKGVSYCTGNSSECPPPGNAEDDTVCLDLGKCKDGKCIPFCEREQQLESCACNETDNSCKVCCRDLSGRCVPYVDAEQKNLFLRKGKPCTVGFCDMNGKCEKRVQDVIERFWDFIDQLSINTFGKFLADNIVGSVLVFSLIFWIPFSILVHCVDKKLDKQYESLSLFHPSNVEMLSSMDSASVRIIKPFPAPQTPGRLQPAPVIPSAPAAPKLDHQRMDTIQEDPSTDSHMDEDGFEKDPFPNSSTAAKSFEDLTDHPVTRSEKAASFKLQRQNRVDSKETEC
# protocol.text: Inhibition of TACE activity (fluorimetric peptide substrate cleavage)
# Type: biochemical
# assay.setup: recombinant TACE (R&D Systems), MCA peptide substrate, fluorimeter; read-out: Inhibition of TACE activity (IC50)
pIC50: −log10 of the molar value. Counter-ions that a name gives are not always drawn.
experimental.readout: pIC50

Quick one: pIC50 of CC(C)C(C(=O)NO)N1CCN(Cc2ccc(OCc3ccccn3)cc2)C1=O (stereo not shown) [Example 12, TFA] ?
5.10

Also check CC(C)C(C(=O)NO)N1C(=O)N(Cc2ccccc2)CC1Cc1ccc2c(c1)OCO2 (stereo not shown)
5.03

Also check CC(C)C(C(=O)NO)N1CCN(Cc2cccc(OCc3ccccc3)c2)C1=O (stereo not shown)
5.70

Also check CC(C)C(C(=O)NO)N1CCN(Cc2ccc(Oc3ccccc3)cc2)C1=O (stereo not shown)
5.30

Also check CC(C)C(C(=O)NO)N1C(=O)N(Cc2ccc(OCc3ccccc3)cc2)CC1Cc1ccc2c(c1)OCO2 (stereo not shown)
5.72

Also check CC(C)C(C(=O)NO)N1CCN(Cc2ccc(OCc3ccccc3)cc2)C1=O (stereo not shown)
5.61

Also check COc1ccc(CC2CN(Cc3ccccc3)C(=O)N2C(C(=O)NO)C(C)C)cc1 (stereo not shown)
5.10

Also check CC(C)C(C(=O)NO)N1CCN(Cc2ccc(OCc3cccnc3)cc2)C1=O (stereo not shown) [Example 11, TFA]
5.52

A. COc1ccc(CC2CN(Cc3ccc(OCc4ccccc4)cc3)C(=O)N2C(C(=O)NO)C(C)C)cc1 (stereo not shown)
B. CC#CCOc1ccc(CN2CCN(C(C(=O)NO)C(C)C)C2=O)cc1 (stereo not shown)
Hey, between A and B which has a smaller measured pIC50? # reply format: chosen label
B
